Parameter: z-score. Scope: all listed entries.
assay: compound effects on differentiated 3T3-L1 adipocyte viability – cell-based, 3T3-L1 adipocytes, calcein-AM fluorescence, 48 h, basal, profiling panel (AID 1163); conditions: 3T3-L1 adipocytes viability, higher = more signal; note: test concentration not given here
observable: z-score

INSERT INTO results (molecular_string, observable, endpoint_value) VALUES
  ('CCCC[C@H]1OB(O)C[C@H]2C1=C(C)Cn1c(=O)n(-c3ccccc3)c(=O)n12', 'z-score', 0.465),
  ('CO[C@H]1O[C@H](CO)[C@@H](OC(=O)Nc2ccc3c(c2)OCO3)[C@H](OC(=O)Nc2ccc3c(c2)OCO3)[C@H]1OC(=O)Nc1ccc2c(c1)OCO2', 'z-score', -0.121),
  ('COCCOC(=O)N1C(=O)[C@@]2(c3cc(C#CCCO)ccc31)[C@H](c1ccc(O)cc1)N1[C@H](c3ccccc3)[C@H](c3ccccc3)OC(=O)[C@H]1[C@@H]2C(=O)N1CCCCCCC1', 'z-score', 0.943);
